- test target: T1, TFAM (UniProt Q00059 43-246)
- T1 sequence: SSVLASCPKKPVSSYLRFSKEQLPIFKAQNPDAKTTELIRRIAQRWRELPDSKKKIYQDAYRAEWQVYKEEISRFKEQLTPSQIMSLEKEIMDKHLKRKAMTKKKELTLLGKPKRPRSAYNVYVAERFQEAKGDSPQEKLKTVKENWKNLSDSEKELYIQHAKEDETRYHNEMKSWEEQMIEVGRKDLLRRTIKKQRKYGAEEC
- method: fluorescence polarization; 200 mM NaCl; EMSA: 10 mM HEPES pH 8.0, 500 mM NaCl, 2 mM DTT, 130 ug/ml BSA, 5% glycerol, 100 nM DNA, 30 min on ice then 10 min RT; FP: 10 mM HEPES pH 8.0, 150-400 mM NaCl
- condition set: protein: recombinant; tags: His-MBP N-terminal, removed by TEV; label: 5'-Cy3 on strand 1 (EMSA); 6-FAM (FP); blunt
assay endpoint: Kd (nM)

binder	assay endpoint	readout number
DNAAA (dsDNA) DNA 1: AAAAAGAATCATTTGGATATATAGGTAT DNA 2: ATACCTATATATCCAAATGATTCTTTTT	Kd	79
DNAGG (dsDNA) DNA 1: AAAAAGAACCATTTGGATACATAGGTAT DNA 2: ATACCTATGTATCCAAATGGTTCTTTTT	Kd	55.5
